targetOrTestSystem: RASA1(SH2dom.C-term.) (Homo sapiens)
Construct: SH2dom.C-term. denotes SH2 domain closest to C-terminus of protein; made in house; host or cells: HEK293 (transient transfection, unpurified extract)
Sequence (P20936 351-441 limits assumed): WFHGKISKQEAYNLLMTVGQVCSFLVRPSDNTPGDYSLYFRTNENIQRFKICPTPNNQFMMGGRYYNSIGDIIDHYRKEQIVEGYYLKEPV
assayNotes: biochemical
Format: binding
conditionParameters: read-out: percent of DMSO vehicle control
Non-standard residues stand in square brackets, D forms with d. Residues, ends and D or L forms follow the SMILES beside them. *: point of attachment. pY = N[C@@H](Cc1ccc(OP(=O)(O)O)cc1)C(=O)O; Caffeoyl = O=C(/C=C/c1ccc(O)c(O)c1)*
reportedEndpoint: remaining activity at 10 µM (%)
Express it in %; write the number only.

Ask: # remaining activity at 10 µM lookup, item CC[C@H](C)[C@H](NC(=O)[C@H](CCC(=O)O)NC(=O)[C@H](CCC(=O)O)NC(=O)[C@H](Cc1ccc(OP(=O)(O)O)cc1)NC(=O)/C=C/c1ccc(O)c(O)c1)C(=O)N[C@@H](CCC(=O)O)C(=O)O [Caffeic acid-pYEEIE] (Caffeoyl-[pY]EEIE-OH)
Result: 78

Ask: # remaining activity at 10 µM lookup, item CC(=O)N[C@@H](Cc1ccc(CP(=O)(O)O)cc1)C(=O)NC1(C(=O)N[C@@H](CC(N)=O)C(=O)NCCCc2c(O)ccc3ccccc23)CCCCC1 [CGP78850]
Result: 131

Ask: # remaining activity at 10 µM lookup, item CC(=O)N1CC[C@H]2CC[C@@H](C(=O)N[C@@H](CCC(N)=O)C(=O)NC(c3ccccc3)c3ccccc3)N2C(=O)[C@@H](NC(=O)c2cc3cc(C(F)(F)P(=O)(O)O)ccc3[nH]2)C1 [SI-109]
Result: 118

Ask: # remaining activity at 10 µM lookup, item NC(=O)CC[C@H](NC(=O)[C@@H]1CC[C@@H]2CCN(C(=O)CCCCCC#Cc3cccc4c3CN(C3CCC(=O)NC3=O)C4=O)C[C@H](NC(=O)c3cc4cc(C(F)(F)P(=O)(O)O)ccc4[nH]3)C(=O)N21)C(=O)NC(c1ccccc1)c1ccccc1 (stereo partly shown) [SD-36]
Result: 86.6

* * *

targetOrTestSystem: STAT3(E616del)-nonphosphorylated (Homo sapiens, UniProt P40763, DEL616-616)
Construct: made in house; host or cells: HEK293 (transient transfection), unpurified extract, dephosphorylated by endogenous phosphatases
Sequence (P40763 with tags, fused parts or gaps DEL616-616): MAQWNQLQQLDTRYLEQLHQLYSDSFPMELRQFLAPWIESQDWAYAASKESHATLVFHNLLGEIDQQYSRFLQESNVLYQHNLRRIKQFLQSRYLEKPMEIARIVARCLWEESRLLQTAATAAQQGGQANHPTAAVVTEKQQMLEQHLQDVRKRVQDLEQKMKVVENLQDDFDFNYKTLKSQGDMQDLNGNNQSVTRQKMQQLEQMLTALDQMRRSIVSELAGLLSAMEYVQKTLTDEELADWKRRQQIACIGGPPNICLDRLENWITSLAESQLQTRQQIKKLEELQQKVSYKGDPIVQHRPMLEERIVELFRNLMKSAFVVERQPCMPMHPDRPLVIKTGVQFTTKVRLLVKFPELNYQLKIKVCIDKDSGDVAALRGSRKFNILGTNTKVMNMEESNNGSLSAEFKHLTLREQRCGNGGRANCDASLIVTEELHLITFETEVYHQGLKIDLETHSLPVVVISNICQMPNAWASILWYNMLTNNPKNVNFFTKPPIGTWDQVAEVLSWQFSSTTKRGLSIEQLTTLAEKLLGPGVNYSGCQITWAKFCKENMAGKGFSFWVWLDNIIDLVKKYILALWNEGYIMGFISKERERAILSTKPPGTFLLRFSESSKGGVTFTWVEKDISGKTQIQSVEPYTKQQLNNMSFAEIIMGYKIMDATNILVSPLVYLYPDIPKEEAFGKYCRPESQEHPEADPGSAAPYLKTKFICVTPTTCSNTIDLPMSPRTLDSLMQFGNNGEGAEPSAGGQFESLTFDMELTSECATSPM
assayNotes: biochemical
Type: binding
conditionParameters: dose-response; read-out: KD
reportedEndpoint: pKd
Here pKd is given on a logarithmic scale as minus log10 of the concentration in mol/L.

Ask: # pKd lookup, item CC(C)(C)[C@H](NC(=O)/C=C/c1ccc(OP(=O)(O)O)cc1)C(=O)N1CCC[C@H]1C(=O)N(c1ccccc1)c1ccc(I)cc1
Result: 6.55

Ask: # pKd lookup, item C/C(=C\C(=O)N[C@H](C(=O)N1CCC[C@H]1C(=O)N(c1ccccc1)c1ccc(I)cc1)C(C)(C)C)c1ccc(OP(=O)(O)O)cc1
Result: 6.85

* * *

targetOrTestSystem: PIK3R3(SH2dom.C-term.) (Homo sapiens, UniProt Q92569)
Construct: SH2dom.C-term. denotes SH2 domain closest to C-terminus of protein; made in house; host or cells: HEK293 (transient transfection, unpurified extract)
assayNotes: biochemical
Type: binding
Non-standard residues stand in square brackets, D forms with d. Residues, ends and D or L forms follow the SMILES beside them. *: point of attachment. pY = N[C@@H](Cc1ccc(OP(=O)(O)O)cc1)C(=O)O; Caffeoyl = O=C(/C=C/c1ccc(O)c(O)c1)*
reportedEndpoint: pKd
Here pKd is given on a logarithmic scale as minus log10 of the concentration in mol/L.

Ask: # pKd lookup, item CC[C@H](C)[C@H](NC(=O)[C@H](CCC(=O)O)NC(=O)[C@H](CCC(=O)O)NC(=O)[C@H](Cc1ccc(OP(=O)(O)O)cc1)NC(=O)/C=C/c1ccc(O)c(O)c1)C(=O)N[C@@H](CCC(=O)O)C(=O)O [Caffeic acid-pYEEIE] (Caffeoyl-[pY]EEIE-OH)
Result: 6.64

Ask: # pKd lookup, item CC[C@H](C)[C@H](NC(=O)[C@H](CCC(=O)O)NC(=O)[C@H](CCC(=O)O)NC(=O)[C@H](Cc1ccc(OP(=O)(O)O)cc1)NC(C)=O)C(=O)N[C@@H](CCC(=O)O)C(N)=O [Ac-pYEEIE-NH2] (Ac-[pY]EEIE-NH2)
Result: 4.83

Ask: # pKd lookup, item CSCC[C@H](NC(=O)[C@@H]1CCCN1C(=O)[C@@H](NC(=O)[C@H](Cc1ccc(OP(=O)(O)O)cc1)NC(=O)CNC(C)=O)C(C)C)C(=O)N[C@@H](CC(C)C)C(=O)O [Ac-GpYVPML-OH] (Ac-G[pY]VPML-OH)
Result: 8.64

Ask: # pKd lookup, item CC(=O)N[C@@H](Cc1ccc(CP(=O)(O)O)cc1)C(=O)NC1(C(=O)N[C@@H](CC(N)=O)C(=O)NCCCc2c(O)ccc3ccccc23)CCCCC1
Result: 7.32

* * *

targetOrTestSystem: ABL1 (Homo sapiens, UniProt P00519)
Construct: the DNA-tagged SH2 domain concentrations used in this study were <0.1 nM; made in house; host or cells: HEK293 (transient transfection; unpurified extract)
Sequence (P00519 127-217 limits assumed): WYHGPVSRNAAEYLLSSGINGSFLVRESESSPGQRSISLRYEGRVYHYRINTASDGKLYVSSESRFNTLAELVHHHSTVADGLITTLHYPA
assayNotes: biochemical
Assay type: binding
conditionParameters: primary screen, 10 μM; read-out: percent of DMSO vehicle control
Would you mind telling me the reported remaining activity at 10 µM of each entry?
Express it in %; write the number only.

Ask: # remaining activity at 10 µM lookup, item CC(C)(C)[C@H](NC(=O)/C=C/c1ccc(OP(=O)(O)O)cc1)C(=O)N1CCC[C@H]1C(=O)N(c1ccccc1)c1ccc(I)cc1
Result: 0

Ask: # remaining activity at 10 µM lookup, item O=C(COc1ccc2cc(C(=O)Nc3ccccc3)ccc2c1)NCc1ccc(OP(=O)(O)O)c(OP(=O)(O)O)c1
Result: 19.9

Ask: # remaining activity at 10 µM lookup, item O=C(CCl)Nc1cccc(CNC(=O)[C@H](Cc2ccc(OP(=O)(O)O)cc2)NC(=O)Cc2ccc(F)cc2)c1
Result: 35.7

Ask: # remaining activity at 10 µM lookup, item C/C(=C\C(=O)N[C@H](C(=O)N1CCC[C@H]1C(=O)N(c1ccccc1)c1ccc(I)cc1)C(C)(C)C)c1ccc(OP(=O)(O)O)cc1
Result: 0

* * *

targetOrTestSystem: TNS4 (Homo sapiens, UniProt Q8IZW8)
Construct: made in house; host or cells: HEK293 (transient transfection), unpurified extract
Sequence (Q8IZW8 19-715): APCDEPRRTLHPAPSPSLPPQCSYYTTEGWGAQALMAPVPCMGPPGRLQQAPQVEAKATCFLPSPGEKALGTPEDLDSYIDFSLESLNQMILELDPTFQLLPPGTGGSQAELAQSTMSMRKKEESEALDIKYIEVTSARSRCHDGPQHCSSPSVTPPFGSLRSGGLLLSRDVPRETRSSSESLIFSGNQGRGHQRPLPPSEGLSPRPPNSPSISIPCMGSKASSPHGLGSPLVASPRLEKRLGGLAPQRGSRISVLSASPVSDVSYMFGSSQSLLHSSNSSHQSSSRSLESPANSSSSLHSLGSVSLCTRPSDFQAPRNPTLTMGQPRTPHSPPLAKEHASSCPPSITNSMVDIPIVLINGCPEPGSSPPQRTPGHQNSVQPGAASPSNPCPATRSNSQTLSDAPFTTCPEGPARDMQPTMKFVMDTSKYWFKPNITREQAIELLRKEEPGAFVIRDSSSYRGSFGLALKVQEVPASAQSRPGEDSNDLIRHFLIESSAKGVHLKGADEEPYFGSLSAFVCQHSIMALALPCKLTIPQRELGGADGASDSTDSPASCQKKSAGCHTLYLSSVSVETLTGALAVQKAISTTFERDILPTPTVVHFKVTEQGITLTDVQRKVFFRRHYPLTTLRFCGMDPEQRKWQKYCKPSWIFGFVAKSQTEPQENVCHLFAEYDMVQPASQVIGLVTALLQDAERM
assayNotes: biochemical
Type: binding
conditionParameters: primary screen, 10 μM; read-out: percent of DMSO vehicle control
reportedEndpoint: remaining activity at 10 µM (%)
Express it in %; write the number only.

Ask: # remaining activity at 10 µM lookup, item O=C(CCl)Nc1cccc(CNC(=O)[C@H](Cc2ccc(OP(=O)(O)O)cc2)NC(=O)Cc2ccc(F)cc2)c1
Result: 25.9

Ask: # remaining activity at 10 µM lookup, item CC(C)(C)[C@H](NC(=O)/C=C/c1ccc(OP(=O)(O)O)cc1)C(=O)N1CCC[C@H]1C(=O)N(c1ccccc1)c1ccc(I)cc1
Result: 21.6

Ask: # remaining activity at 10 µM lookup, item O=C(COc1ccc2cc(C(=O)Nc3ccccc3)ccc2c1)NCc1ccc(OP(=O)(O)O)c(OP(=O)(O)O)c1
Result: 32.7

Ask: # remaining activity at 10 µM lookup, item C/C(=C\C(=O)N[C@H](C(=O)N1CCC[C@H]1C(=O)N(c1ccccc1)c1ccc(I)cc1)C(C)(C)C)c1ccc(OP(=O)(O)O)cc1
Result: 14

* * *

targetOrTestSystem: BRK (Homo sapiens, UniProt Q13882)
Construct: the DNA-tagged SH2 domain concentrations used in this study were <0.1 nM; made in house; host or cells: HEK293 (transient transfection; unpurified extract)
Sequence (Q13882 78-170 limits assumed): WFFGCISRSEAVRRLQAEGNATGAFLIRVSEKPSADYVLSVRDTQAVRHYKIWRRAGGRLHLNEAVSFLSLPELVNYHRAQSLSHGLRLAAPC
assayNotes: biochemical
Assay type: binding
conditionParameters: primary screen, 10 μM; read-out: percent of DMSO vehicle control
Would you mind telling me the reported remaining activity at 10 µM of each entry?
Express it in %; write the number only.

Ask: # remaining activity at 10 µM lookup, item C/C(=C\C(=O)N[C@H](C(=O)N1CCC[C@H]1C(=O)N(c1ccccc1)c1ccc(I)cc1)C(C)(C)C)c1ccc(OP(=O)(O)O)cc1 [STAT6-IN-1]
Result: 3

Ask: # remaining activity at 10 µM lookup, item O=C(CCl)Nc1cccc(CNC(=O)[C@H](Cc2ccc(OP(=O)(O)O)cc2)NC(=O)Cc2ccc(F)cc2)c1 [MN551]
Result: 4.7

Ask: # remaining activity at 10 µM lookup, item O=C(COc1ccc2cc(C(=O)Nc3ccccc3)ccc2c1)NCc1ccc(OP(=O)(O)O)c(OP(=O)(O)O)c1 [Stafib-1]
Result: 5.4

Ask: # remaining activity at 10 µM lookup, item CC(C)(C)[C@H](NC(=O)/C=C/c1ccc(OP(=O)(O)O)cc1)C(=O)N1CCC[C@H]1C(=O)N(c1ccccc1)c1ccc(I)cc1 [STAT6-IN-3]
Result: 4.1
